These entries and their values trace back to ChEMBL document CHEMBL1139173.

Target protein (sequence): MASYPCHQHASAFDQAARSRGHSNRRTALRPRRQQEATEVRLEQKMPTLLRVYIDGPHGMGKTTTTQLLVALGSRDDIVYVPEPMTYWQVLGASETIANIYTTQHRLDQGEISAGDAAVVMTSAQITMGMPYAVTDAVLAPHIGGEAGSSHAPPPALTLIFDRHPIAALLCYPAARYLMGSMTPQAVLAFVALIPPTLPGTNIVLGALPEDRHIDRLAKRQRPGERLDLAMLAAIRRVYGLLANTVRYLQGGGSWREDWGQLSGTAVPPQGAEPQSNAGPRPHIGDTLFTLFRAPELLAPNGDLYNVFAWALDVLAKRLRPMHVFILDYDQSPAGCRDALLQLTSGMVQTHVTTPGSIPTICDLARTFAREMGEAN
MEASURED_METRIC: IC50

Query: Could you share which IC50 value was measured for CCCCCCCCn1c(=O)c(C)cn([C@@H]2O[C@H](CO)[C@@H](O)[C@@H]2O)c1=O ?
Response: > 500 µM

Query: Would you kindly repeat that for CCCCCCCCO[C@H]1[C@H](O)[C@@H](CO)O[C@H]1n1cc(C)c(=O)[nH]c1=O ?
Response: > 1000 µM

Query: Would you kindly repeat that for NCCCCCC(=O)O[C@H]1[C@H](O)[C@@H](CO)O[C@H]1n1cc(/C=C/Br)c(=O)[nH]c1=O ?
Response: 322 µM

Query: Would you kindly repeat that for CCCCC(=O)O[C@H]1[C@H](O)[C@@H](CO)O[C@H]1n1cc(C)c(=O)[nH]c1=O ?
Response: > 1000 µM

Query: Would you kindly repeat that for Nc1nc2c(ncn2[C@@H]2O[C@H](CO)[C@@H](O)[C@@H]2O)c(=O)[nH]1 ?
Response: > 500 µM

Query: Would you kindly repeat that for NCCCC(=O)O[C@H]1[C@H](O)[C@@H](CO)O[C@H]1n1cc(/C=C/Br)c(=O)[nH]c1=O ?
Response: 17 µM

Query: Would you kindly repeat that for CCCCCCCC(=O)O[C@H]1[C@H](O)[C@@H](CO)O[C@H]1n1cc(/C=C/Br)c(=O)[nH]c1=O ?
Response: ≥ 1000 µM

---

# TARGET_OF_ASSAY: Deoxynucleoside kinase (Drosophila melanogaster, UniProt Q9XZT6)
# Sequence (Q9XZT6 whole entry): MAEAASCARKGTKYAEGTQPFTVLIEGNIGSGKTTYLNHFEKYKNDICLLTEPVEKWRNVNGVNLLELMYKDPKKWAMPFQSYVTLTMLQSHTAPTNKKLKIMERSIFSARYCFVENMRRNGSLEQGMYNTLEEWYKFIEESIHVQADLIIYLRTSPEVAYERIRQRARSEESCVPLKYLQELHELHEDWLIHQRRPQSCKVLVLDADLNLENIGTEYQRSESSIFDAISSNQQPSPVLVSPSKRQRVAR
pIC50: −log10 of the molar value.
Answer each item with its documented pIC50.

Query: Could you share which pIC50 value was measured for NCCCC(=O)O[C@H]1[C@H](O)[C@@H](CO)O[C@H]1n1cc(/C=C/Br)c(=O)[nH]c1=O ?
Response: 3.80

Query: Would you kindly repeat that for CCCCCCCCn1c(=O)c(C)cn([C@@H]2O[C@H](CO)[C@@H](O)[C@@H]2O)c1=O ?
Response: < 3.30

Query: Would you kindly repeat that for CCCCCCCCCC(=O)N[C@H]1[C@H](O)[C@@H](CO)O[C@H]1n1cc(C)c(=O)[nH]c1=O ?
Response: < 3.30

Query: Would you kindly repeat that for CCCCC(=O)O[C@H]1[C@H](O)[C@@H](CO)O[C@H]1n1cnc2c(=O)[nH]c(N)nc21 ?
Response: < 3.30

Query: Would you kindly repeat that for NCCCCCC(=O)O[C@H]1[C@H](O)[C@@H](CO)O[C@H]1n1cc(/C=C/Br)c(=O)[nH]c1=O ?
Response: < 3.30

Query: Would you kindly repeat that for CC(C)(C)OC(=O)NCCCCCCCC(=O)O[C@H]1[C@H](O)[C@@H](CO)O[C@H]1n1cc(/C=C/Br)c(=O)[nH]c1=O ?
Response: 4.13

Query: Would you kindly repeat that for Nc1nc2c(ncn2[C@@H]2O[C@H](CO)[C@@H](O)[C@@H]2O)c(=O)[nH]1 ?
Response: < 3.30

Query: Would you kindly repeat that for O=C(Cc1ccccc1)O[C@H]1[C@H](O)[C@@H](CO)O[C@H]1n1cc(/C=C/Br)c(=O)[nH]c1=O ?
Response: 3.38

Query: Would you kindly repeat that for O=c1[nH]c(=O)n([C@@H]2O[C@H](CO)[C@@H](O)[C@@H]2O)cc1/C=C/Br [SORIVUDINE] ?
Response: 4.55

Query: Would you kindly repeat that for CCCCCCCC(=O)O[C@H]1[C@H](O)[C@@H](CO)O[C@H]1n1cnc2c(=O)[nH]c(N)nc21 ?
Response: < 3.30

Query: Would you kindly repeat that for CC(C)(C)OC(=O)NCCCC(=O)O[C@H]1[C@H](O)[C@@H](CO)O[C@H]1n1cc(/C=C/Br)c(=O)[nH]c1=O ?
Response: 3.88

Query: Would you kindly repeat that for CCCCCCCC(=O)Nc1nc2c(ncn2[C@@H]2O[C@H](CO)[C@@H](O)[C@@H]2OC(=O)CCCCCCC)c(=O)[nH]1 ?
Response: < 3.30

Query: Would you kindly repeat that for CCCCCCCC(=O)O[C@H]1[C@H](O)[C@@H](CO)O[C@H]1n1cc(C)c(=O)[nH]c1=O ?
Response: < 3.00

Query: Would you kindly repeat that for CC(C)(C)OC(=O)NCCCCCCCCCCCC(=O)O[C@H]1[C@H](O)[C@@H](CO)O[C@H]1n1cc(/C=C/Br)c(=O)[nH]c1=O ?
Response: ≤ 3.30

Query: Would you kindly repeat that for COc1ccc(CC(=O)O[C@H]2[C@H](O)[C@@H](CO)O[C@H]2n2cc(/C=C/Br)c(=O)[nH]c2=O)cc1 ?
Response: 3.74

Query: Would you kindly repeat that for Cc1cn([C@@H]2O[C@H](CO)[C@@H](O)[C@@H]2OCc2ccccc2)c(=O)[nH]c1=O ?
Response: < 3.00

Query: Would you kindly repeat that for CC(C)(C)OC(=O)NCCCCCC(=O)O[C@H]1[C@H](O)[C@@H](CO)O[C@H]1n1cc(/C=C/Br)c(=O)[nH]c1=O ?
Response: 4.11

Query: Would you kindly repeat that for CCCCCCCCO[C@H]1[C@H](O)[C@@H](CO)O[C@H]1n1cc(C)c(=O)n(CCCCCCCC)c1=O ?
Response: < 3.00

---

# TARGET_OF_ASSAY: UniProt:O00142
# Sequence (O00142 whole entry): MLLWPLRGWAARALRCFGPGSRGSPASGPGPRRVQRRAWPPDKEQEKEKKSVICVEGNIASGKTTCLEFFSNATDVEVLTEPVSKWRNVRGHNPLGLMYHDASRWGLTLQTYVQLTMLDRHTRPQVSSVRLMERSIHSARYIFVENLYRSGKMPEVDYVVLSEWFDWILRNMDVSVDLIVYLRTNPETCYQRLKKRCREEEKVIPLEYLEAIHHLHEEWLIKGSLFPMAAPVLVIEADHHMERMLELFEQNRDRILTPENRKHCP
# PROCEDURE_SUMMARY: Inhibition of human TK2 assessed as [methyl-3H]dThd phosphorylation
MEASURED_METRIC: pIC50
Scale: pIC50 equals -log10([C]), with [C] in mol/L.

Query: Could you share which pIC50 value was measured for CCCCCCCCCC(=O)N[C@H]1[C@H](O)[C@@H](CO)O[C@H]1n1cc(C)c(=O)[nH]c1=O ?
Response: 3.32

Query: Would you kindly repeat that for CC(C)(C)OC(=O)NCCCCCCCCCCCC(=O)O[C@H]1[C@H](O)[C@@H](CO)O[C@H]1n1cc(/C=C/Br)c(=O)[nH]c1=O ?
Response: 5.42

Query: Would you kindly repeat that for COc1ccc(CC(=O)O[C@H]2[C@H](O)[C@@H](CO)O[C@H]2n2cc(/C=C/Br)c(=O)[nH]c2=O)cc1 ?
Response: 4.36

Query: Would you kindly repeat that for CC(C)(C)OC(=O)NCCCCCC(=O)O[C@H]1[C@H](O)[C@@H](CO)O[C@H]1n1cc(/C=C/Br)c(=O)[nH]c1=O ?
Response: 4.21

Query: Would you kindly repeat that for O=c1[nH]c(=O)n([C@@H]2O[C@H](CO)[C@@H](O)[C@@H]2O)cc1/C=C/Br ?
Response: 4.37

Query: Would you kindly repeat that for CC(C)(C)OC(=O)NCCCCCCCC(=O)O[C@H]1[C@H](O)[C@@H](CO)O[C@H]1n1cc(/C=C/Br)c(=O)[nH]c1=O ?
Response: 5.19

---

# TARGET_OF_ASSAY: Thymidine kinase, cytosolic (Homo sapiens, UniProt P04183)
# Sequence (P04183 whole entry): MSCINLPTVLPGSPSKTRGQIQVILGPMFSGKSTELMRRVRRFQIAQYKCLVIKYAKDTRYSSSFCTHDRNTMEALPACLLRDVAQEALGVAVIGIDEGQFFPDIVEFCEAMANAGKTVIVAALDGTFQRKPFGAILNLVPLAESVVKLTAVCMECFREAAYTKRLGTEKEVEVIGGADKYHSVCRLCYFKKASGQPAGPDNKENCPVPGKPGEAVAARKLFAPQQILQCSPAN
pIC50: −log10 of the molar value.
Answer each item with its documented pIC50.

Query: Could you share which pIC50 value was measured for CCCCCCCC(=O)O[C@H]1[C@H](O)[C@@H](CO)O[C@H]1n1cc(C)c(=O)[nH]c1=O ?
Response: < 3.00

Query: Would you kindly repeat that for CCCCCCCCn1c(=O)c(C)cn([C@@H]2O[C@H](CO)[C@@H](O)[C@@H]2O)c1=O ?
Response: < 3.30

Query: Would you kindly repeat that for O=c1[nH]c(=O)n([C@@H]2O[C@H](CO)[C@@H](O)[C@@H]2O)cc1/C=C/Br [SORIVUDINE] ?
Response: < 3.30

Query: Would you kindly repeat that for CCCCC(=O)O[C@H]1[C@H](O)[C@@H](CO)O[C@H]1n1cnc2c(=O)[nH]c(N)nc21 ?
Response: < 3.30

Query: Would you kindly repeat that for NCCCC(=O)O[C@H]1[C@H](O)[C@@H](CO)O[C@H]1n1cc(/C=C/Br)c(=O)[nH]c1=O ?
Response: < 3.30

Query: Would you kindly repeat that for CCCCCCCC(=O)Nc1nc2c(ncn2[C@@H]2O[C@H](CO)[C@@H](O)[C@@H]2OC(=O)CCCCCCC)c(=O)[nH]1 ?
Response: < 3.30

Query: Would you kindly repeat that for Nc1nc2c(ncn2[C@@H]2O[C@H](CO)[C@@H](O)[C@@H]2O)c(=O)[nH]1 ?
Response: < 3.30

Query: Would you kindly repeat that for NCCCCCC(=O)O[C@H]1[C@H](O)[C@@H](CO)O[C@H]1n1cc(/C=C/Br)c(=O)[nH]c1=O ?
Response: < 3.30

Query: Would you kindly repeat that for Cc1cn([C@@H]2O[C@H](CO)[C@@H](O)[C@@H]2OCc2ccccc2)c(=O)[nH]c1=O ?
Response: < 3.00

Query: Would you kindly repeat that for CCCCCCCC(=O)O[C@H]1[C@H](O)[C@@H](CO)O[C@H]1n1cnc2c(=O)[nH]c(N)nc21 ?
Response: < 3.30
